Species on record: Rattus norvegicus
Assay: Open TG-GATES - Regimen: Daily Repeat
Format: toxicity, organism-based, Sprague-Dawley
Set-up: regimen Daily Repeat, gender Male, age 6 weeks
Settings: in vivo, po, 0 mg/kg, […], tissue Kidney, route gavage, dose level Control, time 28 day
observed.property: KIDNEY_TOTAL (g)
Respond with the bare value in g.

molecule: COc1ccc([C@@H]2Sc3ccccc3N(CCN(C)C)C(=O)[C@@H]2OC(C)=O)cc1
observed.property: KIDNEY_TOTAL
value.unit: g
numeric.result: 3

molecule: CCCCC1C(=O)N(c2ccccc2)N(c2ccccc2)C1=O
observed.property: KIDNEY_TOTAL
value.unit: g
numeric.result: 2.7

molecule: Nc1ccc(Cc2ccc(N)cc2)cc1
observed.property: KIDNEY_TOTAL
value.unit: g
numeric.result: 2.9

molecule: O=C(O)c1ccccc1Nc1ccccc1
observed.property: KIDNEY_TOTAL
value.unit: g
numeric.result: 2.9

Task: Write down KIDNEY_TOTAL measured for item CC(=O)[C@@]1(O)CC[C@H]2[C@@H]3C=C(Cl)C4=CC(=O)CC[C@]4(C)[C@H]3CC[C@@]21C
Output: 2.9

Task: Write down KIDNEY_TOTAL measured for item CCCCNC(=O)NS(=O)(=O)c1ccc(C)cc1 [TOLBUTAMIDE]
Output: 2.9

Task: Write down KIDNEY_TOTAL measured for item CC(S)C(=O)NCC(=O)O (stereo unspecified)
Output: 2.7

Task: Write down KIDNEY_TOTAL measured for item CCO
Output: 2.6

Task: Write down KIDNEY_TOTAL measured for item O=c1ccc2ccccc2o1
Output: 2.7

Task: Write down KIDNEY_TOTAL measured for item CN(C/C=C/C#CC(C)(C)C)Cc1cccc2ccccc12
Output: 2.8

Task: Write down KIDNEY_TOTAL measured for item CN(CCOc1ccc(CC2SC(=O)NC2=O)cc1)c1ccccn1.O=C(O)/C=C\C(=O)O (stereo unspecified) [ROSIGLITAZONE MALEATE]
Output: 0.9

----------
Property: MCH; scope: individual molecules
Species on record: Rattus norvegicus
Experiment: Open TG-GATES - Regimen: Daily Repeat
Format: toxicity, organism-based, Sprague-Dawley
Set-up: regimen Daily Repeat, gender Male, age 6 weeks
Conditions: in vivo, po, 100 mg/kg, […], tissue Blood, route gavage, dose level Low, time 14 day
Respond with the bare value in pg.

Below, 3 molecules whose answers are already recorded.
molecule: CC(S)C(=O)NCC(=O)O (centres undefined)
value.unit: pg
MCH: 20.8
//
molecule: CCCCNC(=O)NS(=O)(=O)c1ccc(C)cc1 [TOLBUTAMIDE]
value.unit: pg
MCH: 19.5
//
molecule: O=C(O)c1ccccc1Nc1ccccc1
value.unit: pg
MCH: 20.8

Task: Write down MCH measured for item CC(=O)[C@@]1(O)CC[C@H]2[C@@H]3C=C(Cl)C4=CC(=O)CC[C@]4(C)[C@H]3CC[C@@]21C
Output: 19.5

----------
Species on record: Rattus norvegicus
Test: Open TG-GATES - Regimen: Daily Repeat
Type: toxicity, organism-based, Sprague-Dawley
Set-up: regimen Daily Repeat, gender Male, age 6 weeks
Conditions: in vivo, po, 0 mg/kg, […], tissue Blood, route gavage, dose level Control, time 28 day
observed.property: PT (s)
Respond with the bare value in s.

compound: O=c1ccc2ccccc2o1 [COUMARIN]
numeric.result: 12

compound: CCO [ALCOHOL]
numeric.result: 11.2

compound: COc1ccc([C@@H]2Sc3ccccc3N(CCN(C)C)C(=O)[C@@H]2OC(C)=O)cc1 [DILTIAZEM]
numeric.result: 14

compound: CC(=O)[C@@]1(O)CC[C@H]2[C@@H]3C=C(Cl)C4=CC(=O)CC[C@]4(C)[C@H]3CC[C@@]21C [CHLORMADINONE]
numeric.result: 15.5

compound: NS(=O)(=O)c1cc(C(=O)O)c(NCc2ccco2)cc1Cl [FUROSEMIDE]
numeric.result: 16.4

compound: CN(CCOc1ccc(CC2SC(=O)NC2=O)cc1)c1ccccn1.O=C(O)/C=C\C(=O)O (configuration not stated) [ROSIGLITAZONE MALEATE]
numeric.result: 11.7

compound: CCN(CC)C(=S)SSC(=S)N(CC)CC
numeric.result: 16.6

compound: Nc1ccc(Cc2ccc(N)cc2)cc1
numeric.result: 11.9

Task: Write down PT measured for item O=C(O)c1ccccc1Nc1ccccc1 [FENAMIC ACID]
Output: 14.2

Task: Write down PT measured for item CC(S)C(=O)NCC(=O)O (configuration not stated) [TIOPRONIN]
Output: 16

Task: Write down PT measured for item CN(C/C=C/C#CC(C)(C)C)Cc1cccc2ccccc12 [TERBINAFINE]
Output: 12

Task: Write down PT measured for item CCCCNC(=O)NS(=O)(=O)c1ccc(C)cc1 [TOLBUTAMIDE]
Output: 13.6

----------
Property: PT; scope: individual compounds
Organism: Rattus norvegicus
Experiment: Open TG-GATES - Regimen: Daily Repeat
Assay type: toxicity, organism-based, Sprague-Dawley
Design: regimen Daily Repeat, gender Male, age 6 weeks
Conditions: in vivo, po, 300 mg/kg, […], tissue Blood, route gavage, dose level Middle, time 28 day
Respond with the bare value in s.

Task: Write down PT measured for item O=C(O)c1ccccc1Nc1ccccc1 [FENAMIC ACID]
Output: 14.1

Task: Write down PT measured for item CC(S)C(=O)NCC(=O)O (centres undefined) [TIOPRONIN]
Output: 16.1

Task: Write down PT measured for item CC(=O)[C@@]1(O)CC[C@H]2[C@@H]3C=C(Cl)C4=CC(=O)CC[C@]4(C)[C@H]3CC[C@@]21C [CHLORMADINONE]
Output: 14.8

Task: Write down PT measured for item CCCCNC(=O)NS(=O)(=O)c1ccc(C)cc1 [TOLBUTAMIDE]
Output: 13.4

----------
Property: IP; scope: individual compounds
Species: Rattus norvegicus
Assay: Open TG-GATES - Regimen: Daily Repeat
Type: toxicity, organism-based, Sprague-Dawley
Parameters: regimen Daily Repeat, gender Male, age 6 weeks
Conditions: in vivo, po, 0 mg/kg, […], tissue Plasma, route gavage, dose level Control, time 28 day
Respond with the bare value in mg/dL.

Below, 5 compounds whose answers are already recorded.
compound: CCCCNC(=O)NS(=O)(=O)c1ccc(C)cc1 [TOLBUTAMIDE]
observed.property: IP
numeric.result: 6.7
--
compound: Nc1ccc(Cc2ccc(N)cc2)cc1
observed.property: IP
numeric.result: 5.9
--
compound: CCN(CC)C(=S)SSC(=S)N(CC)CC
observed.property: IP
numeric.result: 6.8
--
compound: O=c1ccc2ccccc2o1 [COUMARIN]
observed.property: IP
numeric.result: 6.5
--
compound: CCCCC1C(=O)N(c2ccccc2)N(c2ccccc2)C1=O [PHENYLBUTAZONE]
observed.property: IP
numeric.result: 6.8

Task: Write down IP measured for item COc1ccc([C@@H]2Sc3ccccc3N(CCN(C)C)C(=O)[C@@H]2OC(C)=O)cc1 [DILTIAZEM]
Output: 6.8

Task: Write down IP measured for item CCO [ALCOHOL]
Output: 6.1

Task: Write down IP measured for item CC(=O)[C@@]1(O)CC[C@H]2[C@@H]3C=C(Cl)C4=CC(=O)CC[C@]4(C)[C@H]3CC[C@@]21C [CHLORMADINONE]
Output: 6.6

Task: Write down IP measured for item O=C(O)c1ccccc1Nc1ccccc1 [FENAMIC ACID]
Output: 6.9

Task: Write down IP measured for item NS(=O)(=O)c1cc(C(=O)O)c(NCc2ccco2)cc1Cl [FUROSEMIDE]
Output: 6.3

Task: Write down IP measured for item CN(C/C=C/C#CC(C)(C)C)Cc1cccc2ccccc12 [TERBINAFINE]
Output: 6.9

Task: Write down IP measured for item CN(CCOc1ccc(CC2SC(=O)NC2=O)cc1)c1ccccn1.O=C(O)/C=C\C(=O)O (stereo not drawn) [ROSIGLITAZONE MALEATE]
Output: 6.1

Task: Write down IP measured for item CC(S)C(=O)NCC(=O)O (stereo not drawn) [TIOPRONIN]
Output: 6.7

----------
Property: Bas; scope: individual molecules
Species: Rattus norvegicus
Experiment: Open TG-GATES - Regimen: Daily Repeat
Type: toxicity, organism-based, Sprague-Dawley
Design: regimen Daily Repeat, gender Male, age 6 weeks
Conditions: in vivo, po, 100 mg/kg, 72 h, tissue Blood, route gavage, dose level Low, time 3 day
Respond with the bare value in %.

Below, 3 molecules whose answers are already recorded.
molecule: CCCCNC(=O)NS(=O)(=O)c1ccc(C)cc1 [TOLBUTAMIDE]
Bas [%]: 0.2
--
molecule: O=C(O)c1ccccc1Nc1ccccc1
Bas [%]: 0.6
--
molecule: CC(S)C(=O)NCC(=O)O (centres undefined)
Bas [%]: 0

Here's the next entry for you.
Task: Write down Bas measured for item CC(=O)[C@@]1(O)CC[C@H]2[C@@H]3C=C(Cl)C4=CC(=O)CC[C@]4(C)[C@H]3CC[C@@]21C
Output: 0

Origin of measurements: ChEMBL document CHEMBL3885861
